- System: hRXR α, β, or γ
- measurementNotes: Transactivation assay (RARE-Luc dual luciferase reporter in HEK-293 cells), activity relative to LG268
- Format: cell-based, human
- measurementParameters: compound at 1 µM, 24 h; luciferase activity expressed relative to LG268
observedProperty: Activity at 1 µM

Sample answers from the record:
INSERT INTO assay_data (molecule, assaytarget, datavalue) VALUES
  ('CC1(C)CCC(C)(C)c2sc(C(=O)c3ccc(C(=O)O)cc3)nc21', 'hRXR α, β, or γ', '* (<0.7)'),
  ('Cc1c(N(c2ccc(C(=O)O)cn2)C(C)C)sc2c1C(C)(C)CCC2(C)C', 'hRXR α, β, or γ', '***** (>1)'),
  ('Cc1c(N(c2ccc(C(=O)O)cn2)S(C)(=O)=O)sc2c1C(C)(C)CCC2(C)C', 'hRXR α, β, or γ', '***** (>1)'),
  ('CCN(c1ccc(C(=O)O)cn1)c1sc2c(c1C)C(C)(C)CCC2(C)C', 'hRXR α, β, or γ', '***** (>1)'),
  ('COc1ccc(C2CC2C(=O)O)cc1-c1sc2c(c1C)C(C)(C)CCC2(C)C (stereo not drawn)', 'hRXR α, β, or γ', '* (<0.7)'),
  ('CCN(c1ccc(C(=O)O)cc1)c1cc2c(s1)C(C)(C)CCC2(C)C', 'hRXR α, β, or γ', '***** (>1)'),
  ('Cc1nc2cc(C(=O)O)ccc2n1-c1nc2c(s1)C(C)(C)CCC2(C)C', 'hRXR α, β, or γ', '* (<0.7)'),
  ('Cc1c(N(C)c2ccc(C(=O)O)cc2)sc2c1C(C)(C)CCC2(C)C', 'hRXR α, β, or γ', '***** (>1)'),
  ('C=C(c1ccc(C(=O)O)cc1)c1sc2c(c1C)C(C)(C)CCC2(C)C', 'hRXR α, β, or γ', '***** (>1)'),
  ('CC1(C)CCC(C)(C)c2sc(/C=C/c3ccc(C(=O)O)cc3)nc21', 'hRXR α, β, or γ', '* (<0.7)');

Consider now this further molecule.
**Q:** Endpoint output: Activity at 1 µM of `Cc1c(C2(c3ccc(C(=O)O)cn3)CC2)sc2c1C(C)(C)CCC2(C)C` . Value?
**A:** ***** (>1)
